Values were extracted from paper PMC8588131.

# System: Macrotyloma uniflorum urease
# assay.protocol: in vitro urease inhibitory assay (modified Berthelot reaction, indophenol blue, absorbance at 630 nm)
# Assay type: biochemical, Macrotyloma uniflorum (Horse gram)
# settings: at 5.00 μg/mL
Everything with Percentage inhibition (± SEM) lower than 20% is Not satisfied; everything else, including exactly 20%, is Satisfied.

molecule: O/N=C\c1c[nH]c2ccccc12 [Compound 2]
discrete.label: Not satisfied
//
molecule: O/N=C/c1cn(Cc2ccccc2)c2ccccc12 [Compound 9]
discrete.label: Satisfied
//
molecule: NC(N)=S [Thiourea, thiourea, reference compound]
discrete.label: Not satisfied
//
molecule: Cn1cc(/C=N\O)c2ccccc21 [Compound 6]
discrete.label: Satisfied
//
molecule: O/N=C\c1cn(Cc2ccccc2)c2ccccc12 [Compound 8]
discrete.label: Satisfied
//
molecule: Cn1cc(/C=N/O)c2ccccc21 [Compound 7]
discrete.label: Satisfied
